system: biotinyl-Val-oxazolone; assay: self-aminoacylation, catalytic enhancement (BVO) (fold over background); higher = more active; k-Seq, kA / k0A0; sequences stand for … in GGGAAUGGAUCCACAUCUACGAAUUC…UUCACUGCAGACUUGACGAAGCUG
This sample holds only a part of the variants without activity.
# binarize self-aminoacylation: threshold 1 inclusive, high side fulfilled, low side not fulfilled

Q. Given CCACACUUCAGGCUAUCGGUC [Fam1B.1 aminoacylation ribozyme variant] , state whether its self-aminoacylation is at least 1.
A. fulfilled

Q. Can GUUCAACUAGGUCAUCGGGUG [Fam2.2 aminoacylation ribozyme variant] be said to have self-aminoacylation at or above 1?
A. fulfilled

Q. Quick check, self-aminoacylation >= 1? AUUCACCUAGGCCAUUGGGUG [Fam2.2 aminoacylation ribozyme variant]
A. fulfilled

***
Q. Please indicate if the recorded self-aminoacylation for CCACACUUCAAGCAAACGGUC [Fam1B.1 aminoacylation ribozyme variant] meets or exceeds 1.
A. not fulfilled

Q. I'd appreciate it if you could say whether AAGUUUGCUAAUAGUUGCAUG [Fam3.1 aminoacylation ribozyme variant] has self-aminoacylation at least equal to 1.
A. not fulfilled

Q. Decide: self-aminoacylation of AAGUUUGCUGAUAGUCGCGAG [Fam3.1 aminoacylation ribozyme variant] >= 1?
A. fulfilled

Q. Can CUACUUCAAACAAGCGGGCUG [Fam1A.1 aminoacylation ribozyme variant] be said to have self-aminoacylation at or above 1?
A. fulfilled

Q. Please indicate if the recorded self-aminoacylation for AUUCACCUAACUCAUCGGGUG [Fam2.2 aminoacylation ribozyme variant] meets or exceeds 1.
A. fulfilled

Q. Reported self-aminoacylation at or above 1? AAGGUUGCUAAUAGUCGCAAU [Fam3.1 aminoacylation ribozyme variant]
A. fulfilled
